ASSAY DETAILS: Binding affinity against sigma receptor in guinea pig brain preparation was estimated using [3H]3-PPP as radioligand
pKi: −log10 of the molar value.
Classification field: enter Met for pKi values not below 9, Not met for values below it.

> print(dat)
                                        mol  category.label
1         C1=C(c2ccccc2)CCN(CCCCc2ccncc2)C1         Not met
2        Cc1ccc(C2=CCN(CCCCc3ccncc3)CC2)cc1         Not met
3   C1=C(c2ccc3ccccc3c2)CCN(CCCCc2ccncc2)C1         Not met
4       COc1ccc(C2=CCN(CCCCc3ccncc3)CC2)cc1             Met
5  C1=C(c2c[nH]c3ccccc23)CCN(CCCCc2ccncc2)C1         Not met

###

ASSAY DETAILS: Binding affinity against sigma receptor in guinea pig brain preparation was estimated using [3H]3-PPP as radioligand
REPORTED METRIC: Ki (nM)

> print(dat)
                                  mol  unit.abbreviation  endpoint.value
1   C1=C(c2ccccn2)CCN(CCCCc2ccncc2)C1                 nM            44.5
2    C1=C(c2cccs2)CCN(CCCCc2ccncc2)C1                 nM            2.13
3  Fc1ccc(C2=CCN(CCCCc3ccncc3)CC2)cc1                 nM            1.75
